Each entry below carries its reported MIC.
System: MSSA-1
measurement notes: MIC, clinical isolate of S. aureus
Format: cell-based
experimental conditions: Staphylococcus aureus; clinical isolate MSSA-1; read-out: MIC
The reply should be a number in µg/mL, with the unit left off.

Before answering, review these 3 worked examples.
> print(dat)
                                   compound  study.system  parameter.measured  result
1  O=C(NNC(=S)Nc1ccc(Cl)cc1)c1ccccc1F [compound 6]        MSSA-1                 MIC     250
2  CNC(C)C1CCC(N)C(OC2C(N)CC(N)C(OC3OCC(C)(O)C(NC)C3O)C2O)O1 (centres unmarked) [GN, gentamicin, reference compound]        MSSA-1                 MIC    0.98
3  O=C(NNC(=S)Nc1cccc(Cl)c1)c1ccccc1F [compound 7]        MSSA-1                 MIC     125

What measured MIC goes with O=C(NNC(=S)Nc1cccc(Br)c1)c1ccccc1F [compound 9] ?
62.5

###

Test system: MSSA-1
measurement notes: MIC, clinical isolate of S. aureus
Assay type: cell-based
experimental conditions: Staphylococcus aureus; clinical isolate MSSA-1; read-out: MIC
The entries below come with measured MIC values attached.

> print(dat)
                                   compound  study.system  parameter.measured       result
1  O=C(NC(=S)NNC(=O)c1cccc(Cl)c1Cl)c1ccc(Cl)cc1        MSSA-1                 MIC  > 500 µg/mL

Fill in: MIC of CC1(C)S[C@@H]2[C@H](NC(=O)[C@H](N)c3ccc(O)cc3)C(=O)N2[C@H]1C(=O)O [AMX, amoxicillin, reference compound] is ___
1.95 µg/mL

Queued: Cc1ccccc1C(=O)NC(=S)NNC(=O)c1cccc(Cl)c1Cl
> 500 µg/mL

And O=C(NC(=S)NNC(=O)c1cccc(Cl)c1Cl)c1ccccc1Cl ?
> 500 µg/mL

What do we get for Cc1cccc(C(=O)NC(=S)NNC(=O)c2cccc(Cl)c2Cl)c1 ?
> 500 µg/mL

And C[C@H]1COc2c(N3CCN(C)CC3)c(F)cc3c(=O)c(C(=O)O)cn1c23 [LEV, levofloxacin, reference compound] ?
0.12 µg/mL

Here is the next compound: CC(=O)NC[C@H]1CN(c2ccc(N3CCOCC3)c(F)c2)C(=O)O1 [LZD, linezolid, reference compound]
1.95 µg/mL

And what about the compound O=C(NNC(=S)Nc1cccc(C(F)(F)F)c1)c1ccccc1F ?
62.5 µg/mL

###

Test system: S. aureus ATCC 25923
measurement notes: Checkerboard broth dilution synergy assay
Assay type: cell-based
experimental conditions: combination with amoxicillin
parameter measured: interaction in combination

Worked set:
> print(dat)
                            chemical.string          parameter.measured         result
1  O=C(NC(=S)NNC(=O)c1cccc(Cl)c1Cl)c1ccc(Cl)cc1  interaction in combination       additive
2        O=C(NNC(=S)Nc1cccc(Cl)c1)c1ccccc1F  interaction in combination     additively
3  Cc1cccc(C(=O)NC(=S)NNC(=O)c2cccc(Cl)c2Cl)c1  interaction in combination       additive
4  O=C(NNC(=S)Nc1cccc(C(F)(F)F)c1)c1ccccc1F  interaction in combination  indifferently
5        O=C(NNC(=S)Nc1cccc(Br)c1)c1ccccc1F  interaction in combination  indifferently
6  O=C(NC(=S)NNC(=O)c1cccc(Cl)c1Cl)c1ccccc1Cl  interaction in combination     additively

Provide value of interaction in combination for this record tested with S. aureus ATCC 25923: Cc1ccccc1C(=O)NC(=S)NNC(=O)c1cccc(Cl)c1Cl
additive

Entry to check: O=C(NNC(=S)Nc1ccc(Cl)cc1)c1ccccc1F
additive

###

Overview of reported viability at 24 h, 25 µg/mL across a group of molecules:
measurement notes: MTT cytotoxicity assay
Type: cell-based, human
experimental conditions: human, Hs27 foreskin fibroblast cells (ATCC CRL-1634), 25 µg/mL, 24 h, vehicle control = 100%
Give the number; % is assumed, so skip it.

Solved cases (5 shown):
> print(dat)
                                   molecule  units  result
1  Cc1cccc(C(=O)NC(=S)NNC(=O)c2cccc(Cl)c2Cl)c1      %    76.7
2  O=C(NNC(=S)Nc1cccc(C(F)(F)F)c1)c1ccccc1F      %    65.2
3  O=C(NC(=S)NNC(=O)c1cccc(Cl)c1Cl)c1ccc([N+](=O)[O-])cc1      %    70.9
4        O=C(NNC(=S)Nc1ccc(Cl)cc1)c1ccccc1F      %    96.8
5  O=C(NC(=S)NNC(=O)c1cccc(Cl)c1Cl)c1ccccc1Cl      %      81

Data request, read-out viability at 24 h, 25 µg/mL, for O=C(NNC(=S)Nc1cccc(Cl)c1)c1ccccc1F
93.2

Moving on to the next molecule: O=C(NNC(=S)Nc1cccc(Br)c1)c1ccccc1F
63.1

Same thing, different molecule: Cc1ccccc1C(=O)NC(=S)NNC(=O)c1cccc(Cl)c1Cl
78.5

Now consider O=C(NC(=S)NNC(=O)c1cccc(Cl)c1Cl)c1ccc(Cl)cc1 .
80.7

Ok, now C[C@H]1COc2c(N3CCN(C)CC3)c(F)cc3c(=O)c(C(=O)O)cn1c23 [LEV, levofloxacin, reference compound]
101

###

Test system: S. epidermidis ATCC 12228
measurement notes: MIC, broth microdilution
Assay type: cell-based
experimental conditions: Staphylococcus epidermidis, ATCC12228; S. e. ATCC 12228; compounds 6–9 and antibiotics; read-out: MIC
# note: exactly 0.5 µg/mL is not below, so it is criterion not met; use criterion met for MIC strictly under it

> print(dat)
                                   molecule     classification
1  C[C@H]1COc2c(N3CCN(C)CC3)c(F)cc3c(=O)c(C(=O)O)cn1c23 [LEV, levofloxacin, reference compound]      criterion met
2  O=C(NNC(=S)Nc1cccc(Br)c1)c1ccccc1F [compound 9]  criterion not met
3  O=C(NNC(=S)Nc1cccc(Cl)c1)c1ccccc1F [compound 7]  criterion not met
4  O=C(NNC(=S)Nc1ccc(Cl)cc1)c1ccccc1F [compound 6]  criterion not met
5  CNC(C)C1CCC(N)C(OC2C(N)CC(N)C(OC3OCC(C)(O)C(NC)C3O)C2O)O1 (centres unmarked) [GN, gentamicin, reference compound]      criterion met

Does CC1(C)S[C@@H]2[C@H](NC(=O)[C@H](N)c3ccc(O)cc3)C(=O)N2[C@H]1C(=O)O [AMX, amoxicillin, reference compound] have MIC strictly under 0.5 µg/mL?
criterion not met

Another molecule: O=C(NNC(=S)Nc1cccc(C(F)(F)F)c1)c1ccccc1F [compound 8]
criterion not met

###

Examples of compounds with documented MIC follow.
Test system: MSSA-4
measurement notes: MIC, clinical isolate of S. aureus
Assay type: cell-based
experimental conditions: Staphylococcus aureus; clinical isolate MSSA-4; read-out: MIC
// return numeric value only (unit: µg/mL, not printed)

Tell me the measured MIC of CC1(C)S[C@@H]2[C@H](NC(=O)[C@H](N)c3ccc(O)cc3)C(=O)N2[C@H]1C(=O)O [AMX, amoxicillin, reference compound] , please.
31.2

Follow-up entry: O=C(NC(=S)NNC(=O)c1cccc(Cl)c1Cl)c1ccc([N+](=O)[O-])cc1
500

Please answer likewise for O=C(NNC(=S)Nc1cccc(Cl)c1)c1ccccc1F
125

###

Tested on: S. aureus ATCC 25923
measurement notes: Checkerboard broth dilution synergy assay
Format: cell-based
experimental conditions: combination with levofloxacin
parameter measured: interaction in combination

Previously resolved entries follow.
> print(dat)
                            chemical.string           result
1        O=C(NNC(=S)Nc1cccc(Br)c1)c1ccccc1F       additively
2  O=C(NC(=S)NNC(=O)c1cccc(Cl)c1Cl)c1ccc([N+](=O)[O-])cc1  no interactions
3  Cc1ccccc1C(=O)NC(=S)NNC(=O)c1cccc(Cl)c1Cl  no interactions
4  Cc1cccc(C(=O)NC(=S)NNC(=O)c2cccc(Cl)c2Cl)c1  no interactions
5  O=C(NC(=S)NNC(=O)c1cccc(Cl)c1Cl)c1ccccc1Cl       additively

We now examine a further compound.
Any idea what its interaction in combination is? The compound is O=C(NNC(=S)Nc1cccc(C(F)(F)F)c1)c1ccccc1F
additively

###

System: S. aureus ATCC 25923
measurement notes: Checkerboard broth dilution synergy assay
Format: cell-based
experimental conditions: combination with vancomycin
parameter measured: interaction in combination

Recorded results for 4 compounds are shown here.
> print(dat)
                                   compound          parameter.measured           result
1  O=C(NNC(=S)Nc1cccc(C(F)(F)F)c1)c1ccccc1F [compound 8]  interaction in combination    indifferently
2  O=C(NNC(=S)Nc1cccc(Br)c1)c1ccccc1F [compound 9]  interaction in combination    indifferently
3  Cc1cccc(C(=O)NC(=S)NNC(=O)c2cccc(Cl)c2Cl)c1 [compound 2]  interaction in combination  no interactions
4  Cc1ccccc1C(=O)NC(=S)NNC(=O)c1cccc(Cl)c1Cl [compound 1]  interaction in combination  no interactions

Next up:
Sample O=C(NC(=S)NNC(=O)c1cccc(Cl)c1Cl)c1ccc([N+](=O)[O-])cc1 [compound 5] — what was its interaction in combination?
no interactions

# credit: paper PMC7288171
